system: Plasmodium falciparum; test: GSK_TCMDC: Inhibition of Plasmodium falciparum Dd2 in whole red blood cells, using parasite LDH activity as an index of growth. Test compounds present at 2uM; format: functional
measuredParameter: Inhibition (%)
Use % as the unit, but write only the number.

Cl.c1ccc(Oc2ccc(Nc3nncc4ccccc34)cc2)cc1: 82
O=C(c1ccc(-c2cnc3[nH]cc(-c4ccc(C(=O)N5CCOCC5)cc4)c3c2)cc1)N1CCOCC1: 0

Item under review: CN(C)c1ccc(CN2CCC(NC(=O)c3ccc(-c4cccc(Cl)c4)s3)CC2)cc1.O=C(O)C(F)(F)F . Reported Inhibition?
44

---

tested on: Plasmodium falciparum; assay: GSK_TCMDC: Inhibition of Plasmodium falciparum 3D7 in whole red blood cells, using parasite LDH activity as an index of growth. Test compounds present at 2uM; assay type: functional
measuredParameter: Inhibition (%)
Use % as the unit, but write only the number.

Guide cases for Inhibition, answers given:
CC(C)COc1ccc(Cl)cc1Cc1nc(-c2nc3ccc(CN4CCN(C)CC4)cc3[nH]2)co1.Cl: 100
C[C@@H]1CN(C(c2cccc(O)c2)c2cccc(C(=O)N(C)c3cccc(F)c3)c2)[C@@H](C)CN1C(c1cccc(O)c1)c1cccc(C(=O)N(C)c2cccc(F)c2)c1.Cl (stereo not given in full): 91
CO/C(=C\C=C\c1cc2cc(Cl)c(Cl)cc2[nH]1)C(=O)NCCCN1CCCC[C@@H]1C: 99
COc1cc(NC(=O)c2c(-c3c(F)cccc3Cl)noc2C)c(OC)cc1Cl: 89

# next molecule below
Quick check: Inhibition on Plasmodium falciparum, item Brc1ccsc1-c1nc(NC2CCN(Cc3ccccc3)CC2)no1 ?
80

---

tested on: Plasmodium falciparum; assay: GSK_TCMDC: Inhibition of Plasmodium falciparum Dd2 in whole red blood cells, using parasite LDH activity as an index of growth. Test compounds present at 2uM; type: functional
Think of 60% as a floor: if Inhibition stands on it or above, it is MET; beneath it, NOT MET.

Cl.c1ccc2c(NCCCCCCNc3ccnc4ccccc34)ccnc2c1: NOT MET
O=C(/C=C/c1ccc(Cl)c(Cl)c1)NCCCCCCN1CCN(C(=O)Nc2ccc(OC(F)F)cc2)CC1: NOT MET

Tell me whether Inhibition is at least 60% here: COc1ccc2nccc([C@@H](O)CN3CCC(NCCc4c[nH]c5ccccc45)CC3)c2c1.O=C(O)C(=O)O
MET

Tell me whether Inhibition is at least 60% here: CN(C)CCOc1ccc2c(c1)OC(C)(C)C=C2c1cccc2ccccc12.Cl
NOT MET

Tell me whether Inhibition is at least 60% here: Cl.Fc1cccc(COc2ccc(Nc3ncnc4sc(C#C[C@H]5CCCN5)cc34)cc2F)c1
NOT MET

Tell me whether Inhibition is at least 60% here: CNCCNCc1cccc(-c2ccc(-c3nc4cccc(C)c4[nH]3)s2)c1.O=C(O)C(F)(F)F
NOT MET

Tell me whether Inhibition is at least 60% here: Cl.O=c1n(CC2CCCCC2)c2cc(Cl)cc(OCCNc3ccncc3)c2n1CC1CCCCC1
MET

Tell me whether Inhibition is at least 60% here: COC(=O)Cn1c2ccccc2c2c(N)c(C(=O)OC)c(C)nc21
NOT MET

Tell me whether Inhibition is at least 60% here: O=C(Nc1ccc2c(c1)CCN2C1CCN(Cc2ccc(O)cc2)C1)c1ccco1 (stereo not drawn)
MET

Tell me whether Inhibition is at least 60% here: Nc1nc(N)c2c3c(cnc2n1)CCCC3
NOT MET

Tell me whether Inhibition is at least 60% here: COc1ccc(CN2CCN(CCCCNC(=O)c3ccc(NC(=O)c4ccc(Cl)cc4)cc3)CC2)c(OC)c1
NOT MET

Tell me whether Inhibition is at least 60% here: CCc1c(C)c(C#N)c2nc3ccccc3n2c1NCc1ccco1
MET

Tell me whether Inhibition is at least 60% here: COc1ccc(C(=O)Nc2ccc(Nc3nc(C)cc(N(C)C)n3)cc2)c(OC)c1
MET

Tell me whether Inhibition is at least 60% here: COc1cc2nccc(Nc3ccc(Oc4ccccc4)cc3)c2cc1OC.Cl
MET

Tell me whether Inhibition is at least 60% here: C#CCOc1ccccc1CN1CCC(N2CCc3cc(NC(=O)c4cc(C)on4)ccc32)C1 (stereo not drawn)
MET

Tell me whether Inhibition is at least 60% here: CCN(CC)CCN(Cc1ccc(-c2ccc(C(F)(F)F)cc2)cc1)C(=O)Cn1c(CCc2cc(F)c(F)cc2F)nc(=O)c2ccccc21.O=C(O)C(O)C(O)C(=O)O
NOT MET

Tell me whether Inhibition is at least 60% here: Br.COc1ccc(CC(C)CON2C(N)=NC(N)=NC2(C)C)cc1 (stereo not drawn)
MET

Tell me whether Inhibition is at least 60% here: Cc1cc(N[C@@H](Cc2ccccc2)C(=O)NCc2cccc(F)c2)nc(NCCc2ccccc2)n1.O=C(O)C(F)(F)F
MET

Tell me whether Inhibition is at least 60% here: CCC(C)NC(=O)Cn1c2ncccc2c(=O)n1-c1ccc(C)cc1 (stereo not drawn)
MET

Tell me whether Inhibition is at least 60% here: Cc1ccccc1C1CCN(c2ccc(NC(=O)c3ccc(Cl)nc3)cc2)CC1.O=C(O)C(F)(F)F
MET

Tell me whether Inhibition is at least 60% here: Cc1cc(-c2ccc(NC(=O)N3CCc4cc(Br)c(N5CCN(C)CC5)cc43)cc2)ccc1C#N
NOT MET

Tell me whether Inhibition is at least 60% here: O=C(NC1CCC1)C1CCN(C(c2ccccc2)c2cc(F)cc(F)c2)CC1 (stereo not drawn)
MET

Tell me whether Inhibition is at least 60% here: CCCNc1ccc(-c2cc(C(N)=O)c3[nH]cc(C4CCN(S(=O)(=O)CC)CC4)c3c2)cn1.O=C(O)C(F)(F)F
NOT MET

Tell me whether Inhibition is at least 60% here: COc1ccc2nccc([C@@H](O)CN3CCC(NC(=O)c4ccc(C5(C(F)(F)F)N=N5)cc4)CC3)c2c1
NOT MET

Tell me whether Inhibition is at least 60% here: CCCN(c1ccc(C(F)(F)F)cc1[N+](=O)[O-])S(=O)(=O)C(c1ccccc1)c1ccc(C(F)(F)F)cc1[N+](=O)[O-] (stereo not drawn)
NOT MET

Tell me whether Inhibition is at least 60% here: COc1cc2nc(NCc3cccc(CNC(=O)c4ccc(-c5ccc(C(C)=O)cc5)cc4)c3)nc(N)c2cc1OC.O=C(O)C(F)(F)F
MET
